Test system: CCRIS mutagenicity, Ames/micronucleus/aberration tests
METHOD_SUMMARY: CCRIS mutagenicity studies
REPORTED_CONDITIONS: Test System: AMES SALMONELLA TYPHIMURIUM; Strain/Indicator: TA100; Metabolic Activation: NONE; Method: STANDARD PLATE
Calls of active or inactive are those of the source. How the calls were made is not given here.
Mark one answer only. Choices: yes (1) = active, no (0) = inactive

// below: answered compounds
C=C(C)C(=O)OCC(CC)(COC(=O)C(=C)C)COC(=O)C(=C)C	no (0)
CO/N=C(\C(=O)N[C@@H]1C(=O)N2C(C(=O)O)=C(CSC(=O)c3ccco3)CS[C@H]12)c1csc(N)n1	no (0)
C1CCC2(CC1)CO2	no (0)
O=[N+]([O-])c1cc2[nH]c3ccc4ccccc4c3c2c2cc(O)ccc12	yes (1)
Nc1snc2ccc(Cl)cc12	no (0)

Please turn your attention to the following entry.
Ask: Look up the recorded call for "O=Cc1ccco1" in this test.
Reply: no (0)

* * *

Tested on: CCRIS mutagenicity, Ames/micronucleus/aberration tests
METHOD_SUMMARY: CCRIS mutagenicity studies
REPORTED_CONDITIONS: Test System: AMES SALMONELLA TYPHIMURIUM; Strain/Indicator: TA98; Metabolic Activation: MOUSE, LIVER, S-9, AROCLOR 1254; Method: STANDARD PLATE
Calls of active or inactive are those of the source. How the calls were made is not given here.
Mark one answer only. Choices: YES (active), NO (inactive)

// below: answered compounds
CCOc1ccc(NC(C)=O)cc1N	YES
COc1cc(-c2ccc(N=C=O)c(OC)c2)ccc1N=C=O	YES
Nc1ccc2cc3ccc(N)cc3nc2c1	YES

Please turn your attention to the following entry.
Ask: Look up the recorded call for "CC(=O)c1ccc(S(=O)(=O)NC(=O)NC2CCCCC2)cc1" in this test.
Reply: NO

* * *

System: CCRIS mutagenicity, Ames/micronucleus/aberration tests
METHOD_SUMMARY: CCRIS mutagenicity studies
REPORTED_CONDITIONS: Test System: AMES SALMONELLA TYPHIMURIUM; Strain/Indicator: TA1538; Metabolic Activation: RAT, LIVER, S-9, AROCLOR 1254; Method: STANDARD PLATE
Active and inactive are the calls of the source. No rule for the calls is given here.
Mark one answer only. Choices: active, inactive

// below: answered compounds
CCCCC/C=C/C=C/C=O	inactive
CC/C(=C(\c1ccccc1)c1ccc(OCCN(C)C)cc1)c1ccccc1	inactive

Ask: Look up the recorded call for "O=c1[nH]c2ccccc2o1" in this test.
Reply: inactive

Ask: Look up the recorded call for "C#C[C@]1(OC(C)=O)CC[C@H]2[C@@H]3CCC4=CC(=O)CC[C@@H]4[C@H]3CC[C@@]21C" in this test.
Reply: inactive

Ask: Look up the recorded call for "COc1cc(-c2oc3cc(O)cc(O)c3c(=O)c2O)ccc1O" in this test.
Reply: inactive

Ask: Look up the recorded call for "COC(=O)C(C)(C)Oc1ccc(-c2ccc(Cl)cc2)cc1" in this test.
Reply: inactive

Ask: Look up the recorded call for "N#Cc1cc([N+](=O)[O-])ccc1N=Nc1ccc(N(CCO)CCO)cc1" in this test.
Reply: active

Ask: Look up the recorded call for "Nc1cc([N+](=O)[O-])c(N)cc1Cl" in this test.
Reply: active

Ask: Look up the recorded call for "CCOP(=O)(OCC)O/C(=C/Br)c1ccc(Cl)cc1Cl" in this test.
Reply: inactive

Ask: Look up the recorded call for "C=CC(=O)O" in this test.
Reply: inactive

Ask: Look up the recorded call for "Cc1ccccc1Cl" in this test.
Reply: inactive

Ask: Look up the recorded call for "O=PO.O=PO.[Mn+2]" in this test.
Reply: inactive

Ask: Look up the recorded call for "O=C1c2cc(S(=O)(=O)O)ccc2C(=O)c2c1cccc2[N+](=O)[O-]" in this test.
Reply: active

* * *

Test system: CCRIS mutagenicity, Ames/micronucleus/aberration tests
METHOD_SUMMARY: CCRIS mutagenicity studies
REPORTED_CONDITIONS: Test System: AMES SALMONELLA TYPHIMURIUM; Strain/Indicator: TA100; Metabolic Activation: NONE; Method: STANDARD PLATE
Activity calls are given as the source filed them. The rule behind the calls is not given here.
Mark one answer only. Choices: active, inactive

// below: answered compounds
O=C(O)/C=C/c1ccccc1	inactive
COC(=O)C(C)(C)Oc1ccc(-c2ccc(Cl)cc2)cc1	inactive
c1scc2c1-c1cscc1C1NC21 (stereo unspecified)	active
O=C(/C=C/c1ccc(O)cc1)c1ccccc1	inactive
CC[C@]1(O)C[C@@H]2CN(CCc3c([nH]c4ccccc34)[C@@](C(=O)OC)(c3cc4c(cc3OC)N(C)[C@H]3[C@@](O)(C(=O)OC)[C@H](OC(C)=O)[C@]5(CC)C=CCN6CC[C@]43[C@@H]65)C2)C1	inactive

Ask: Look up the recorded call for "FC(F)(F)c1ccc(Cl)cc1" in this test.
Reply: inactive

Ask: Look up the recorded call for c1ccc2c(COCC3CO3)cccc2c1 (stereo unspecified) in this test.
Reply: active

* * *

Tested on: CCRIS mutagenicity, Ames/micronucleus/aberration tests
METHOD_SUMMARY: CCRIS mutagenicity studies
REPORTED_CONDITIONS: Test System: AMES SALMONELLA TYPHIMURIUM; Strain/Indicator: TA100; Metabolic Activation: NONE; Method: PREINCUBATION
Calls of active or inactive are those of the source. How the calls were made is not given here.
Mark one answer only. Choices: true (1) = active, false (0) = inactive

// below: answered compounds
C=CCOC(=O)C=C	false (0)
CC1=CC(C)(C)Nc2ccccc21	false (0)
C1CS1	true (1)
Cc1cc2c(c3ccc4ccccc4c13)[C@H]1O[C@H]1[C@@H](O)[C@@H]2O	false (0)
N[C@@H](CSC(Cl)=C(Cl)Cl)C(=O)O	true (1)
c1cnccn1	false (0)

Ask: Look up the recorded call for C=CC1CC=CCC1 (configuration not stated) in this test.
Reply: false (0)

Ask: Look up the recorded call for "Nc1cc([N+](=O)[O-])cc(S(=O)(=O)O)c1O" in this test.
Reply: false (0)

Ask: Look up the recorded call for "CC(C)(C)C1=CC(=CC=C2C=C(C(C)(C)C)C(=O)C(C(C)(C)C)=C2)C=C(C(C)(C)C)C1=O" in this test.
Reply: false (0)

Ask: Look up the recorded call for "O=[N+]([O-])c1ccc(Cl)c([N+](=O)[O-])c1" in this test.
Reply: true (1)

Ask: Look up the recorded call for "O=S(=O)(O)OCc1c2ccccc2c2ccc3cccc4ccc1c2c43" in this test.
Reply: true (1)

Ask: Look up the recorded call for "Nc1nc(-c2cccc([N+](=O)[O-])c2)nc2c1ncn2[C@@H]1O[C@H](CO)[C@@H](O)[C@H]1O" in this test.
Reply: true (1)

* * *

System: CCRIS mutagenicity, Ames/micronucleus/aberration tests
METHOD_SUMMARY: CCRIS mutagenicity studies
REPORTED_CONDITIONS: Test System: MOUSE LYMPHOMA; Strain/Indicator: L5178Y (TK+/TK-); Metabolic Activation: RAT, LIVER, S-9; Method: SUSPENSION/PLATE
Active and inactive are the calls of the source. How the calls were made is not given here.
Mark one answer only. Choices: active, inactive

CC(=O)Nc1ccc2c(c1)Cc1ccccc1-2	active
O=C(O)CCC(=O)OC[C@@H](NC(=O)C(Cl)Cl)[C@H](O)c1ccc([N+](=O)[O-])cc1	active
C[Si](Cl)(Cl)Cl	inactive

Please turn your attention to the following entry.
Ask: Look up the recorded call for "CN(C)C=O" in this test.
Reply: inactive

* * *

Test system: CCRIS mutagenicity, Ames/micronucleus/aberration tests
METHOD_SUMMARY: CCRIS mutagenicity studies
REPORTED_CONDITIONS: Test System: AMES SALMONELLA TYPHIMURIUM; Strain/Indicator: TA100; Metabolic Activation: NONE; Method: PREINCUBATION
Calls of active or inactive are those of the source. No rule for the calls is given here.
Mark one answer only. Choices: active, inactive

// below: answered compounds
CCOC(=O)N(CCC=O)N=O	active
OC1CCCCC1	inactive
CC1=C2C(=CO[C@H](C)[C@H]2C)C(=O)C(C(=O)O)=C1O	inactive
CC12OOC1(C)c1ccccc1O2 (stereo not drawn)	active
Cc1nc2ccc(N)cc2nc1C	inactive

Ask: Look up the recorded call for OCC(O)CI (stereo not drawn) in this test.
Reply: active

Ask: Look up the recorded call for "Cc1ccc(N)c(C)c1" in this test.
Reply: inactive

Ask: Look up the recorded call for "O=C1OC(=O)c2ccccc21" in this test.
Reply: inactive

Ask: Look up the recorded call for "CC(=O)Nc1ccnc2ccccc12" in this test.
Reply: inactive

Ask: Look up the recorded call for "CCOCc1c(O)cc2c(c1O)C(=O)c1ccccc1C2=O" in this test.
Reply: active

Ask: Look up the recorded call for "Oc1cccc(O)c1" in this test.
Reply: inactive

Ask: Look up the recorded call for "CCc1cccc(CC)c1N(COC)C(=O)CCl" in this test.
Reply: inactive

Ask: Look up the recorded call for "Cc1ccc(N)c([N+](=O)[O-])c1" in this test.
Reply: inactive

Ask: Look up the recorded call for "Clc1cccc(Cl)c1NC1=NCCN1" in this test.
Reply: inactive

Ask: Look up the recorded call for "Cc1cnc[nH]1" in this test.
Reply: inactive

Ask: Look up the recorded call for "Clc1c(Cl)c(Br)c2c(c1Cl)-c1nc-2nc2[n-]c(nc3nc(nc4[n-]c(n1)c1c(Cl)c(Br)c(Cl)c(Br)c41)-c1c(Cl)c(Cl)c(Br)c(Cl)c1-3)c1c(Br)c(Cl)c(Br)c(Cl)c21.[Cu+2]" in this test.
Reply: inactive

Ask: Look up the recorded call for "O=C(O)CC[N+](=O)[O-]" in this test.
Reply: active

Ask: Look up the recorded call for "CCCCCCCCCc1ccc(OP(=O)(Oc2ccccc2)Oc2ccccc2)cc1" in this test.
Reply: inactive

Ask: Look up the recorded call for "C=CCc1ccc(OC)c(OC)c1" in this test.
Reply: inactive

Ask: Look up the recorded call for "CCOP(=S)(OCC)OP(=S)(OCC)OCC" in this test.
Reply: inactive

Ask: Look up the recorded call for "CO[C@@H]1C[C@](C)(O)Cc2cc3c(c(O)c21)C(=O)c1c(O)cc2c(c1C3=O)O[C@@H]1O[C@@]2(C)[C@H](O)[C@@H](N(C)C)[C@@H]1O" in this test.
Reply: inactive

Ask: Look up the recorded call for "Nc1ccc(C(=O)O)cc1" in this test.
Reply: inactive

Ask: Look up the recorded call for "O=C1NC(=O)c2cc([N+](=O)[O-])ccc21" in this test.
Reply: inactive

Ask: Look up the recorded call for CC(CCN(C)C)N(C)C (stereo not drawn) in this test.
Reply: inactive

Ask: Look up the recorded call for "c1cc2c3c(cccc3c1)CC2" in this test.
Reply: inactive

Ask: Look up the recorded call for "N#[N+]c1cnc([O-])[nH]c1=O" in this test.
Reply: active

Ask: Look up the recorded call for "CC(=O)Nc1ccc2ccccc2n1" in this test.
Reply: inactive

Ask: Look up the recorded call for CC(=O)OC1CC(C)OC(C)O1 (stereo not drawn) in this test.
Reply: inactive
